Assay: qHTS assay for environmental chemicals that activate the Aryl hydrocarbon Receptor (AhR) signaling pathway (AID 651777); also: % of control where 0% means no effect; nearly all actives have a fitted effect of over 15% in size
Conditions: 1A2-DRE human hepatoma cells, luciferase, 24 h; active compounds read high
Results filed as inconclusive are left out.
readout: activation (%)
Field: numeric (%). Do not append units.

> print(dat)
          entrysmiles  measurementunits  readoutnumber
1  Cc1ccc(C)c2ccccc12                 %           1.38

IN: # lookup: activation of CCOP(=S)(OCC)SCSCC
OUT: 2.07

====

Target: Rap guanine nucleotide exchange factor 4 (Homo sapiens)
Assay: Confirmatory qHTS for agonist of cAMP-regulated guanine nucleotide exchange factor 4 (EPAC2) (AID 1645884);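 also: nucleotide exchange releases bodipy-GDP from Rap1 and this lowers its fluorescence; % is scaled to controls: 0 for no effect and ±100 for the full control effect; nearly all actives have a fitted effect of over 65% in size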
Details: EPAC2 GEF activity, Rap1B-BODIPY-GDP fluorescence, percent relative to cAMP agonist control; series mostly up to 154 µM
Records with an inconclusive call do not appear. Active and inactive are the calls of the source. The call rests on the fitted dose curve; in most records, active means well fitted activation curve with a large enough effect; inconclusive means small, poorly fitted or top-dose-only effect; inactive means no such curve, though single readings can be large or run the other way.
readout: outcome

> print(dat)
                                   compound    result
1  CN1Cc2ccccc2[C@@H]2c3cccc4[nH]cc(c34)C[C@H]21  inactive
2  COc1cc2c(cc1OC)-c1c(OC)c(OC)cc3c1C(C2)N(C)CC3 (stereo unspecified)  inactive
3  CC(C)(O)[C@H]1O[C@@H]2CC[C@]3(C)[C@@]4(C)c5[nH]c6ccccc6c5C[C@@H]4CC[C@]3(O)C2=CC1=O  inactive
4          CC(C)COC(=O)c1ccccc1C(=O)OCC(C)C  inactive
5  CC(C)=CCCC1(C)C=Cc2c(O)c3c(c(CC=C(C)C)c2O1)OC12C(=CC4CC1C(C)(C)OC2(C/C=C(/C)C(=O)O)C4O)C3=O (stereo unspecified)  inactive

From here, focus on the item given below.
IN: # lookup: outcome of Clc1ccc(COC(Cn2ccnc2)c2ccc(Cl)cc2Cl)c(Cl)c1 (stereo unspecified)
OUT: inactive
